- System: 874868-142-R-J2-PDC complex spheroids, growth % test/control
- protocol.description: Anticancer human tumor 874868-142-R-J2-PDC patient-derived head and neck squamous carcinoma cell line growth inhibition [CLK]
- condition.details: second compound 0.1 µM; first compound 0.316 µM; stronger effect = lower value

{"columns": ["molecule", "subject.of.test", "viability, T/C / %"],
 "data": [
  ["Nc1ccn(C2OC(CO)C(O)C2(F)F)c(=O)n1 (stereo not given) + CNC(=O)c1ccc(Nc2nc(OC3CCCC3)c3c(-c4ccc5nc(C)oc5c4)c[nH]c3n2)c(OC)c1", "874868-142-R-J2-PDC complex spheroids, growth % test/control", 57.8],
  ["O=C(c1cc(Cc2n[nH]c(=O)c3ccccc23)ccc1F)N1CCN(C(=O)C2CC2)CC1 + CN1CCN(c2cc(C(=O)Nc3cc4cc(-c5cnn(C)c5)ccc4cn3)ccn2)CC1", "874868-142-R-J2-PDC complex spheroids, growth % test/control", 69.2],
  ["CC1(C)CCC(CN2CCN(c3ccc(C(=O)NS(=O)(=O)c4ccc(NCC5CCOCC5)c([N+](=O)[O-])c4)c(Oc4cnc5[nH]ccc5c4)c3)CC2)=C(c2ccc(Cl)cc2)C1 + CN1CCN(c2cc(C(=O)Nc3cc4cc(-c5cnn(C)c5)ccc4cn3)ccn2)CC1", "874868-142-R-J2-PDC complex spheroids, growth % test/control", 67.1],
  ["CC(Nc1ccc2c(c1)OCCn1cc(N3C(=O)OCC3C(F)F)nc1-2)C(N)=O (stereo not given) + CN1CCN(c2cc(C(=O)Nc3cc4cc(-c5cnn(C)c5)ccc4cn3)ccn2)CC1", "874868-142-R-J2-PDC complex spheroids, growth % test/control", 30.2],
  ["C#Cc1c(F)ccc2cc(O)cc(-c3ncc4c(N5CC6CCC(C5)N6)nc(OCC56CCCN5CC(F)C6)nc4c3F)c12 (stereo not given) + CN1CCN(c2cc(C(=O)Nc3cc4cc(-c5cnn(C)c5)ccc4cn3)ccn2)CC1", "874868-142-R-J2-PDC complex spheroids, growth % test/control", 68.8]
]}

* * *

- System: 874868-142-R-J2-PDC complex spheroids, growth % test/control
- protocol.description: Anticancer human tumor 874868-142-R-J2-PDC cell line growth inhibition [CLK];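 note: spheroids exposed to the compounds for 7 days; 100% = DMSO vehicle control viability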
- condition.details: second compound 0.0316 µM; first compound 1 µM; stronger effect = lower value
endpoint.name: viability, T/C (%)

{"columns": ["compound", "endpoint.name", "quantity.unit", "recorded.result"],
 "data": [
  ["O=c1[nH]cc(F)c(=O)[nH]1 + CNC(=O)c1ccc(Nc2nc(OC3CCCC3)c3c(-c4ccc5nc(C)oc5c4)c[nH]c3n2)c(OC)c1", "viability, T/C", "%", 61.1],
  ["C=CC(=O)N1CCN(c2nc(=O)n(-c3c(C)ccnc3C(C)C)c3nc(-c4c(O)cccc4F)c(F)cc23)C(C)C1 (stereo not drawn) + CNC(=O)c1ccc(Nc2nc(OC3CCCC3)c3c(-c4ccc5nc(C)oc5c4)c[nH]c3n2)c(OC)c1", "viability, T/C", "%", 108],
  ["CCN1CCN(Cc2ccc(Nc3ncc(F)c(-c4cc(F)c5nc(C)n(C(C)C)c5c4)n3)nc2)CC1 + CN1CCN(c2cc(C(=O)Nc3cc4cc(-c5cnn(C)c5)ccc4cn3)ccn2)CC1", "viability, T/C", "%", 110]
]}
